tested.on: EP300-BRD (Homo sapiens)
Construct: T7 phage display fusion with DNA tag for qPCR
Sequence (Q09472 1049-1156 limits assumed): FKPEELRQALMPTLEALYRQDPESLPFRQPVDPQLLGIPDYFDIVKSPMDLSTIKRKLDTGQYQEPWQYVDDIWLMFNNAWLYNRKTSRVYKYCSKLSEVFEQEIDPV
test.summary: BROMOscan ligand binding site-directed competition assay, EP300
condition.context: BROMOscan
assay.endpoint: pKd
// scale note: pKd = -log10(conc_M); give the bare number

Qu. Please report pKd for the following molecule: CC(=O)Nc1cc(NC(=O)c2ccco2)cc(C(=O)Nc2cccc3nnc(C)cc23)c1 [compound 1]
Ans. 7.64

Continue with the next molecule.
Qu. Please report pKd for the following molecule: Cc1cc2c(NC(=O)c3cc(NC(=O)c4ccco4)cc(-c4ccn(C)n4)c3)cccc2nn1 [compound 2]
Ans. 8.00

====

% remaining CBP by entry:
tested.on: CBP (Homo sapiens)
Construct: quantification of CBP and EP300 levels by Western blotting following 16 h treatment of LP1 cells; endogenous in cells; host or cells: LP1 cells
Sequence (Q92793 whole entry): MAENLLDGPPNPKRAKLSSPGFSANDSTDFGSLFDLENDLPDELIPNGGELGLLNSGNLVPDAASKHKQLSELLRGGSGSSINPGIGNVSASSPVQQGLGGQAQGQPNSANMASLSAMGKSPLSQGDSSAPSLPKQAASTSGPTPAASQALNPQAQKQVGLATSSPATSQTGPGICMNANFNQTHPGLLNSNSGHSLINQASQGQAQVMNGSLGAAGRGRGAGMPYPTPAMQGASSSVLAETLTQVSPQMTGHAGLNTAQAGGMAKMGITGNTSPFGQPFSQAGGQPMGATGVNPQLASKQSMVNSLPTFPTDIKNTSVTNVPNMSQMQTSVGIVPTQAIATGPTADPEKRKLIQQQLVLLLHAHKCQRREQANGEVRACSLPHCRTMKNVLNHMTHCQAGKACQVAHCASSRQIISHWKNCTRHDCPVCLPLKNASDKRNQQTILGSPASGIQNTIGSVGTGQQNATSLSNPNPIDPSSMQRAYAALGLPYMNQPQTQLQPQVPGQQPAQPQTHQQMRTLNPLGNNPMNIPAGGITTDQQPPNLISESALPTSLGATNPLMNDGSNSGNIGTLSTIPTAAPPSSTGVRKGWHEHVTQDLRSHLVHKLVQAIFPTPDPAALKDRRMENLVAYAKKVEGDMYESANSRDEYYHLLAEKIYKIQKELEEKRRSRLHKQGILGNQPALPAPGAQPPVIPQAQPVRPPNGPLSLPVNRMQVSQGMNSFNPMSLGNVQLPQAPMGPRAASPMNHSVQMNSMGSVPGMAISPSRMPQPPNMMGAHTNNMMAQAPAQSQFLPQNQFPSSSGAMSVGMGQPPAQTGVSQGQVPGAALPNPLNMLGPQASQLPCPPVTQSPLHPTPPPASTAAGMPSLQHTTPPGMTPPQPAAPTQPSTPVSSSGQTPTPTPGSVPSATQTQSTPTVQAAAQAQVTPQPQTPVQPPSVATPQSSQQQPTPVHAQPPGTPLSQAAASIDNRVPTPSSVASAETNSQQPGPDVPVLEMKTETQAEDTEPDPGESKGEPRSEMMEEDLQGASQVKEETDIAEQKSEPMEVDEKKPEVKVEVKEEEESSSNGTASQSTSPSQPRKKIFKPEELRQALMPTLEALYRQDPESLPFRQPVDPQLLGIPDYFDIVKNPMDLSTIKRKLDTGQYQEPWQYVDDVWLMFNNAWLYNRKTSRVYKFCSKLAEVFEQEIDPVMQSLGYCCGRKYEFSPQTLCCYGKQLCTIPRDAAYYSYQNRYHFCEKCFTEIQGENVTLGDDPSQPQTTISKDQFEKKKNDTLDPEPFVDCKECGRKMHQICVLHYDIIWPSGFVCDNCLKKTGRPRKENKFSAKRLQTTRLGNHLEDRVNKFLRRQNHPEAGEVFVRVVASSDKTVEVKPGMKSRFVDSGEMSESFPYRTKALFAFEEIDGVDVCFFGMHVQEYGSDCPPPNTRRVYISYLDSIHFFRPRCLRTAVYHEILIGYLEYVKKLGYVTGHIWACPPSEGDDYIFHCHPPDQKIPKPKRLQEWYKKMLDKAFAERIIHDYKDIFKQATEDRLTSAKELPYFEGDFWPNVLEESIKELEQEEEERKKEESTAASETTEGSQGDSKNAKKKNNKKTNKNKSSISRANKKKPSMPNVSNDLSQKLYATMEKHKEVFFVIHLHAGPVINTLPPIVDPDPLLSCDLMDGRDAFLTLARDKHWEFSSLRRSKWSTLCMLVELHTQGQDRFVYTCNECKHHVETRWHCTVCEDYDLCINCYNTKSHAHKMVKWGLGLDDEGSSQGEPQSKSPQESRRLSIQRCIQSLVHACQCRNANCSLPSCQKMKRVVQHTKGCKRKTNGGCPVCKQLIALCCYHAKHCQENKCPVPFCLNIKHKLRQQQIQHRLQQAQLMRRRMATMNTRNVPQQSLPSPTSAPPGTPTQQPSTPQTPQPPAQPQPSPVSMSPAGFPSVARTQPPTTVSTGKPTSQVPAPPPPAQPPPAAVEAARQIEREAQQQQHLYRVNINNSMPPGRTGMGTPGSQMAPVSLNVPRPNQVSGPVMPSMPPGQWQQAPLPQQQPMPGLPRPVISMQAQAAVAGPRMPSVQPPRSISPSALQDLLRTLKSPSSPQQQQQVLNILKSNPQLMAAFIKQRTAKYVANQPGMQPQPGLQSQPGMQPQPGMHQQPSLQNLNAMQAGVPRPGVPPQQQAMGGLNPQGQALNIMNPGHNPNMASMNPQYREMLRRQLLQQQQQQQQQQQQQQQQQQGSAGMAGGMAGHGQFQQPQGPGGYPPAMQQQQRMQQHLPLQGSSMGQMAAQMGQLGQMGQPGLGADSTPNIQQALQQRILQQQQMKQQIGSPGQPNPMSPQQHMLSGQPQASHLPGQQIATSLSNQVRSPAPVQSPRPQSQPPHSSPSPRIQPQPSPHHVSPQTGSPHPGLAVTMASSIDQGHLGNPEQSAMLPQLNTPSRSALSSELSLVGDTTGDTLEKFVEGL
test.summary: Quantification of CBP degradation by Western blotting in LP1 cells
Format: cell-based
condition.context: 5 μM compound, 16 h, Western blot
Use % as the unit, but write only the number.

Below are worked cases with known answers.
Qu. Please report % remaining CBP for the following molecule: Cc1cc2c(NC(=O)c3cc(NC(=O)CCCCCCCCCCCNc4cccc5c4C(=O)N(C4CCC(=O)NC4=O)C5=O)cc(-c4ccn(C)n4)c3)cccc2nn1 (stereo not drawn) [compound 4]
Ans. 21

Qu. Please report % remaining CBP for the following molecule: Cc1cc2c(NC(=O)c3cc(NC(=O)CCCCCCCCCCNc4ccc5c(c4)C(=O)N(C4CCC(=O)NC4=O)C5=O)cc(-c4ccn(C)n4)c3)cccc2nn1 (stereo not drawn) [compound 7]
Ans. 30

Qu. Please report % remaining CBP for the following molecule: Cc1cc2c(NC(=O)c3cc(NC(=O)COCCOCCOCCNc4cccc5c4C(=O)N(C4CCC(=O)NC4=O)C5=O)cc(-c4ccn(C)n4)c3)cccc2nn1 (stereo not drawn) [compound 8]
Ans. 81

Qu. Please report % remaining CBP for the following molecule: Cc1cc2c(NC(=O)c3cc(NC(=O)CCCCCCCCCCNc4cccc5c4C(=O)N(C4CCC(=O)NC4=O)C5=O)cc(-c4ccn(C)n4)c3)cccc2nn1 (stereo not drawn) [dCE-2]
Ans. 16

Continue with the next molecule.
Qu. Please report % remaining CBP for the following molecule: Cc1cc2c(NC(=O)c3cc(NC(=O)CCCCCCCCNc4cccc5c4C(=O)N(C4CCC(=O)NC4=O)C5=O)cc(-c4ccn(C)n4)c3)cccc2nn1 (stereo not drawn) [compound 6]
Ans. 83

Reference source for all entries: paper PMC11423305
